SUBJECT OF TEST: VIM-1 (Pseudomonas aeruginosa (strain ATCC 15692 / DSM 22644 / CIP 104116 / JCM 14847 / LMG 12228 / 1C / PRS 101 / PAO1), UniProt A0A0F7KYQ8)
PROCEDURE TEXT: biochemical
ASSAY CONDITIONS: CCF2-FA substrate, 2 hours at 25° C
pIC50: −log10 of the molar value.

| MOLECULE SMILES | pIC50 |
| --- | --- |
| NCCCNC(=O)c1cccc(-c2ccc(S(=O)(=O)CCN)c(S(N)(=O)=O)c2-c2nn[nH]n2)c1N | 9.28 |
| CS(=O)(=O)c1ccc([C@H]2CC[C@H](N)CC2)c(-c2nnn[nH]2)c1S(N)(=O)=O | 9.25 |
| C[C@H](N)CS(=O)(=O)c1ccc(-c2cccc3[nH]c(C(=O)O)nc23)c(-c2nn[nH]n2)c1S(N)(=O)=O | 9.73 |
| NS(=O)(=O)c1c(S(=O)(=O)C2CNC2)ccc(-c2cccc3cn[nH]c23)c1-c1nnn[nH]1 | 9.55 |

----------
SUBJECT OF TEST: NDM-1 (Klebsiella pneumoniae, UniProt C7C422)
Sequence (C7C422 whole entry, looked up, species assumed): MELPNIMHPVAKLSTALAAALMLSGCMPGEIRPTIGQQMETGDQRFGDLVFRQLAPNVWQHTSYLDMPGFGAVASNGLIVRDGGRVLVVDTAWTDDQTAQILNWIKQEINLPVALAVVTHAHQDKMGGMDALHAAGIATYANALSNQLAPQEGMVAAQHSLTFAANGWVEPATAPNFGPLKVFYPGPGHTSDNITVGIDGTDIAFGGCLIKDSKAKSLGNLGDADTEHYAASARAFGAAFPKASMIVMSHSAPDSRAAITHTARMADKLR
PROCEDURE TEXT: biochemical
Format: biochemical
ASSAY CONDITIONS: CCF2-FA substrate, 2 hours at 25° C; read-out: NDM-1 IC50
MEASUREMENT KIND: log10 of IC50 (log10 of the value in nM)

| COMPOUND | log10 of IC50 |
| --- | --- |
| NC[C@H](O)CS(=O)(=O)c1ccc(-c2cccc(-c3c[nH]c(N)n3)c2)c(-c2nn[nH]n2)c1S(N)(=O)=O [Example 366] | -0.21 |
| Cc1n[nH]c2cc(F)c(-c3ccc(S(=O)(=O)CCN)c(S(N)(=O)=O)c3-c3nnn[nH]3)cc12.O=C(O)C(F)(F)F [Example 162, 2,2,2-trifluoroacetate] | 0.44 |
| NCCS(=O)(=O)c1ccc(-c2ccc3cccnc3c2)c(-c2nnn[nH]2)c1S(N)(=O)=O.O=C(O)C(F)(F)F [Example 159, 2,2,2-trifluoroacetate] | 0.04 |
| NCCS(=O)(=O)c1ccc(-c2cccc3cn[nH]c23)c(-c2nnn[nH]2)c1S(N)(=O)=O.O=C(O)C(F)(F)F [Example 173, 2,2,2-trifluoroacetate] | -0.47 |
| NC1CCC(c2ccc(S(=O)(=O)CC3CNC3)c(S(N)(=O)=O)c2-c2nnn[nH]2)CC1 (centres unmarked) [Example 203] | 1.05 |
| NS(=O)(=O)c1c(S(=O)(=O)C2CNC2)ccc(-c2cccn3ccnc23)c1-c1nnn[nH]1 [Example 58] | -0.42 |
| Cc1nnc2ccc(-c3ccc(S(=O)(=O)CCN)c(S(N)(=O)=O)c3-c3nnn[nH]3)cn12.O=C(O)C(F)(F)F [Example 133, 2,2,2-trifluoroacetate] | 1.19 |
| C[C@@H](N)CS(=O)(=O)c1ccc(-c2cccc3sc(N)nc23)c(-c2nn[nH]n2)c1S(N)(=O)=O [Example 268] | -0.75 |
| Nc1nc2c(-c3ccc(S(=O)(=O)C4CNC4)c(S(N)(=O)=O)c3-c3nn[nH]n3)cccc2c(=O)[nH]1 [Example 37] | -1.09 |
| NC[C@@H](O)CS(=O)(=O)c1ccc(-c2cccc3sc(N)nc23)c(-c2nn[nH]n2)c1S(N)(=O)=O [Example 352] | -1.18 |
| NCCNC(=O)c1cccc(-c2ccc(S(=O)(=O)CCN)c(S(N)(=O)=O)c2-c2nn[nH]n2)c1N [Example 378] | 0.57 |
| NS(=O)(=O)c1c(S(=O)(=O)C2CNC2)ccc(-c2cccc3[nH]ncc23)c1-c1nnn[nH]1.O=C(O)C(F)(F)F [Example 100, 2,2,2-trifluoroacetate] | -0.45 |
| NCCS(=O)(=O)c1ccc(-c2cccc3c2nc(N)n3CC(F)(F)F)c(-c2nn[nH]n2)c1S(N)(=O)=O [Example 18] | -0.35 |
| NCCNC(=O)c1cc(-c2ccc(S(=O)(=O)CCN)c(S(N)(=O)=O)c2-c2nn[nH]n2)cnc1N [compound 337] | 0.75 |
| C[C@H](CN)S(=O)(=O)c1ccc(-c2cccc3nc(N)[nH]c23)c(-c2nn[nH]n2)c1S(N)(=O)=O [Example 277] | -0.28 |
| C[C@H](CN)S(=O)(=O)c1ccc(-c2cccc3sc(N)nc23)c(-c2nn[nH]n2)c1S(N)(=O)=O [Example 285] | -0.43 |
| Cc1nc(N)ccc1-c1ccc(S(=O)(=O)CCN)c(S(N)(=O)=O)c1-c1nnn[nH]1.O=C(O)C(F)(F)F [Example 170, 2,2,2-trifluoroacetate] | 0.54 |
| Nc1nc2c(-c3ccc(S(=O)(=O)c4ccccn4)c(S(N)(=O)=O)c3-c3nnn[nH]3)cccc2s1 [Example 233] | -1.49 |
| Nc1nc2cccc(-c3ccc(S(=O)(=O)C4CNC4)c(S(N)(=O)=O)c3-c3nn[nH]n3)n2n1 [Example 214] | -0.86 |
| Nc1nc2c(-c3ccc(S(=O)(=O)C4CNC4)c(S(N)(=O)=O)c3-c3nn[nH]n3)ccc(C(F)(F)F)c2s1 [Example 34] | -1.15 |
| NCCS(=O)(=O)c1ccc(-c2ccc(N)nc2)c(-c2nn[nH]n2)c1S(N)(=O)=O [Example 321] | 0.13 |
| Nc1nc2c(-c3ccc(S(=O)(=O)CCN4CCOCC4)c(S(N)(=O)=O)c3-c3nn[nH]n3)cccc2s1 [Example 258] | -0.64 |
| NCCS(=O)(=O)c1ccc(-c2ccc3c(=O)nc[nH]c3c2)c(-c2nnn[nH]2)c1S(N)(=O)=O.O=C(O)C(F)(F)F [Example 165, 2,2,2-trifluoroacetate] | 0.39 |
| NC[C@@H](N)CS(=O)(=O)c1ccc(-c2cccc3[nH]c(N)nc23)c(-c2nn[nH]n2)c1S(N)(=O)=O [Example 360] | -1.18 |
| Cl.Cl.NCCCS(=O)(=O)c1ccc(-c2cccc3[nH]c(N)nc23)c(-c2nn[nH]n2)c1S(N)(=O)=O [Example 270, dihydrochloride] | -0.84 |
| N#Cc1ccc(-c2ccc(S(=O)(=O)CCN)c(S(N)(=O)=O)c2-c2nnn[nH]2)c2[nH]c(N)nc12 [Example 295] | -0.94 |
